- method description: Antiproliferative activity against human MRC5 cells assessed as inhibition of cell growth measured after 48 hrs by MTT assay
- Assay type: toxicity, cell-based
- recorded conditions: human, MRC5 cells
Reported IC50 at 48 h is given for each of the following compounds.
# unit: nM | format: bare number

COCCn1c2c([n+](Cc3cnccn3)c1C)C(=O)c1ccccc1C2=O.[Br-] [SEPANTRONIUM BROMIDE] ... 1940

(Q) Which IC50 at 48 h is reported for this compound? `Cn1c[n+](C)c2c1C(=O)c1cc3ccccc3cc1C2=O.[Br-]`
(A) 3980

====

- Tested on: HeLa
- method description: Antiproliferative activity against human HeLa cells assessed as inhibition of cell growth measured after 48 hrs by MTT assay
- Assay type: functional, cell-based
- recorded conditions: Homo sapiens, HeLa, 48 h
quantity kind: IC50 (nM)
# unit: nM | format: bare number

Cn1c[n+](C)c2c1C(=O)c1cc3ccccc3cc1C2=O.[Br-] ... 1860

Proceed to the following item.
(Q) Which IC50 is reported for this compound? COCC[n+]1c2c(n(Cc3cnccn3)c1C)C(=O)c1ccccc1C2=O.[Br-] [SEPANTRONIUM BROMIDE]
(A) 1800
